# Test system: NCI-H460
# assay_details: NCI tumour cell line growth inhibition, 48 h
The source made the active and inactive calls. Rule as the data show it: active = GI50 up to about 1.1 µM and inactive = higher.
Labels: label 1 (active), label 0 (inactive)

[[record]]
compound = "O=c1[nH]nc(Cc2ccccc2)n1/N=C/c1cccnc1"
cat = "label 0"

[[record]]
compound = "COC(=O)C1=C(C(=O)OC)SC(=C2c3ccsc3-c3sccc32)S1"
cat = "label 0"

[[record]]
compound = "COC1C(O)C(C)OC(O[C@H]2CC[C@@]3(C)C(CC[C@@H]4[C@@H]3CC[C@]3(C)[C@@H](C(C)OC5OC(CO)C(O)C(O)C5O)CC[C@]43O)C2)C1O (stereo not given in full)"
cat = "label 0"

[[record]]
compound = "Sc1nnc(-c2ccccc2)n1/N=C\\c1ccc(-c2ccc(Cl)cc2)o1"
cat = "label 0"

[[record]]
compound = "COc1ccc(-n2nnc3c(C#N)c(-c4ccccc4)c(C)n3c2=O)cc1"
cat = "label 0"

[[record]]
compound = "Cc1cn(C2CC(N)C(C(=O)O)O2)c(=O)[nH]c1=O (stereo not given)"
cat = "label 0"

[[record]]
compound = "CN(C)C(=O)CO/N=C1/C(=C2/C(=O)Nc3ccccc32)Nc2ccccc21"
cat = "label 0"

[[record]]
compound = "CCOc1ccccc1NC(=O)CC(C(=O)OC)C(=O)C(=O)OC (stereo not given)"
cat = "label 0"

[[record]]
compound = "COc1ccc2nc3cc(Cl)ccc3c(NCCCN(C)CCCNc3ccc4ncn5c6ccccc6c(=O)c3c45)c2c1"
cat = "label 1"

[[record]]
compound = "O=P(O)(O)CCP(=O)(O)O"
cat = "label 0"


----------
# System: DMS-114
# assay_details: NCI tumour cell line growth inhibition, 48 h
Activity calls are given as the source filed them. Cut-off read from the data, not from the text of the source: active = GI50 up to about 1.1 µM and inactive = higher.
Labels: yes for active, no for inactive

[[record]]
structure = "C/C(=N/N)c1sc(-c2nc(C)c(/C(C)=N\\N)s2)nc1C"
cat = "no"

[[record]]
structure = "CCCCCCCCCCCCOC(=S)NC"
cat = "no"

[[record]]
structure = "C1=CC=C2NCCCCCC/N=C3\\C=CC=CC=C3NCCc3cccc(c3)CC/N=C/2C=C1"
cat = "no"

[[record]]
structure = "CCOC(=O)C(C(=O)c1ccccc1-c1ccccc1C(=O)O)=P(c1ccccc1)(c1ccccc1)c1ccccc1"
cat = "no"

[[record]]
structure = "O=C(Cc1ccccc1F)NC1=C(Cl)C(=O)c2ccccc2C1=O"
cat = "yes"

[[record]]
structure = "CCOP(=O)(OCC)/C(C#N)=C/c1ccc[nH]1"
cat = "no"


----------
# Tested on: UACC-62
# assay_details: NCI tumour cell line growth inhibition, 48 h
Active and inactive are the calls of the source. Cut-off read from the data, not from the text of the source: active = GI50 up to about 1.1 µM and inactive = higher.
Labels: true (1) (active), false (0) (inactive)

[[record]]
compound = "COc1ccc2c(c1)C/C(=C\\c1cccc3ccccc13)C2=O"
target_desc = "UACC-62"
cat = "false (0)"

[[record]]
compound = "Sc1nnc(-c2ccccc2)n1/N=C\\c1ccc(-c2ccc(Cl)cc2)o1"
target_desc = "UACC-62"
cat = "false (0)"

[[record]]
compound = "N/C(=N\\c1ccc(Cl)cc1)NS(=O)(=O)c1c(C(F)(F)F)cccc1C(F)(F)F"
target_desc = "UACC-62"
cat = "false (0)"

[[record]]
compound = "Cc1ccc(CS(=O)(=O)C/N=C2\\Sc3ccccc3N\\C2=C/C(=O)c2ccc(Cl)cc2)cc1"
target_desc = "UACC-62"
cat = "false (0)"

[[record]]
compound = "C=C1C(=O)O[C@H]2[C@H]1[C@H](OC(=O)/C(C)=C\\C)CC(=C)[C@@H]1[C@H](O)[C@H]3O[C@@]3(C)[C@@]12O [EUPATUNDIN]"
target_desc = "UACC-62"
cat = "false (0)"

[[record]]
compound = "CCOc1cc(/C=C/C=C/C=C/c2ccc(N(C)C)cc2)[s+]c2ccccc12"
target_desc = "UACC-62"
cat = "false (0)"

[[record]]
compound = "COc1ccc(N2C(=O)C3c4[nH]c5ccccc5c4C4CCCCC4C3C2=O)cc1 (centres undefined)"
target_desc = "UACC-62"
cat = "false (0)"

[[record]]
compound = "O=C1C=C(OCCCCl)C(=O)c2c(O)ccc(O)c21"
target_desc = "UACC-62"
cat = "true (1)"

[[record]]
compound = "CS(=O)(=O)c1nc(N)nc2nc[nH]c12"
target_desc = "UACC-62"
cat = "false (0)"


----------
# System: IGROV-1
# assay_details: NCI tumour cell line growth inhibition, 48 h
Activity calls are given as the source filed them. Cut-off read from the data, not from the text of the source: active = GI50 up to about 1.1 µM and inactive = higher.
Labels: 1 (yes) (active), 0 (no) (inactive)

[[record]]
compound = "N=C(N)N/N=C(\\c1ccc(F)cc1)c1ccc(C(F)(F)F)cc1"
target_desc = "IGROV-1"
cat = "1 (yes)"

[[record]]
compound = "O=C(c1ccccc1)N1CCC(Nc2cccnc2)O1 (stereo not given)"
target_desc = "IGROV-1"
cat = "0 (no)"

[[record]]
compound = "Cc1n[n+](Cc2ccccc2)c2sc(N)nn12"
target_desc = "IGROV-1"
cat = "0 (no)"

[[record]]
compound = "CCC(C)[C@H](NC(=O)[C@H](Cc1ccccc1)NC(=O)N(CC)c1ccccc1)C(=O)N[C@@H](CC(C)C)C(=O)OC (stereo not given in full)"
target_desc = "IGROV-1"
cat = "0 (no)"

[[record]]
compound = "C/C(=N\\NC(=S)N1CCN(c2ccccn2)CC1)c1ncccn1"
target_desc = "IGROV-1"
cat = "1 (yes)"


----------
# System: LOX IMVI
# assay_details: NCI tumour cell line growth inhibition, 48 h
Activity calls are given as the source filed them. Rule as the data show it: active = GI50 up to about 1.1 µM and inactive = higher.
Labels: active, inactive

[[record]]
compound = "C=C1C(=O)OC2CC(C)C3C=CC(=O)C3CC12 (stereo unspecified)"
cat = "active"

[[record]]
compound = "O=C1c2c(Br)sc(Br)c2C(NC(=O)C(F)(F)F)C1O (stereo unspecified)"
cat = "inactive"

[[record]]
compound = "COc1ccc(OC)c2c(C(=O)O)c(Cc3ccccc3)ccc12"
cat = "inactive"

[[record]]
compound = "O=S(=O)(/C=C/C=C/S(=O)(=O)c1ccccc1)c1ccccc1"
cat = "active"

[[record]]
compound = "O=C(c1ccccc1)c1nnc(C(=O)c2ccccc2)nn1"
cat = "inactive"

[[record]]
compound = "Nc1ccc(C(=O)N/C(=C\\c2cccc([N+](=O)[O-])c2)c2nc3c(O)nc(S)nc3[nH]2)cc1"
cat = "inactive"


----------
# System: HOP-92
# assay_details: NCI tumour cell line growth inhibition, 48 h
The source made the active and inactive calls. Rule as the data show it: active = GI50 up to about 1.1 µM and inactive = higher.
Labels: active, inactive

[[record]]
molecule = "O=C1OI(C#Cc2ccccc2)c2ccccc21"
target_desc = "HOP-92"
cat = "inactive"

[[record]]
molecule = "CCOC(=O)c1ccc(/N=N/c2cc(C(=O)OCC)ccc2O)cc1"
target_desc = "HOP-92"
cat = "inactive"

[[record]]
molecule = "COc1cc2c[n+](C)c3c4cc(OC)c(OC)cc4c(OCc4ccccc4)cc3c2cc1OC"
target_desc = "HOP-92"
cat = "active"

[[record]]
molecule = "O=C1NCCS(=O)(=O)N2CCC[C@@H]12"
target_desc = "HOP-92"
cat = "inactive"

[[record]]
molecule = "COC(=O)[C@H](Cc1c[nH]c2ccccc12)NC(=O)OCC1OC(n2cc(C)c(=O)[nH]c2=O)CC1N=[N+]=[N-] (stereo not given in full)"
target_desc = "HOP-92"
cat = "inactive"

[[record]]
molecule = "CCN1CCN=c2c3cc(OC)ccc3n3cnc4ccc1c2c43"
target_desc = "HOP-92"
cat = "active"

[[record]]
molecule = "COC(=O)/C=C\\C(C#N)(C#N)/N=C/c1ccccc1"
target_desc = "HOP-92"
cat = "inactive"

[[record]]
molecule = "CCCn1c(SCCSc2c3ccccc3c(-c3nc(F)nc(F)n3)n2CCC)c2ccccc2c1-c1nc(F)nc(F)n1"
target_desc = "HOP-92"
cat = "inactive"

[[record]]
molecule = "COc1ccc(OC)c(C(=O)/C=C/c2cc(O)c(O)cc2F)c1"
target_desc = "HOP-92"
cat = "inactive"

[[record]]
molecule = "COc1ccc2nc3cc(Cl)ccc3c(NCCCN(C)CCCNc3ccc4ncn5c6ccccc6c(=O)c3c45)c2c1"
target_desc = "HOP-92"
cat = "inactive"


----------
# System: RPMI-8226
# assay_details: NCI tumour cell line growth inhibition, 48 h
Calls of active or inactive are those of the source. Cut-off read from the data, not from the text of the source: active = GI50 up to about 1.1 µM and inactive = higher.
Labels: y for active, n for inactive

[[record]]
compound = "Sc1nnc(-c2ccccc2)n1/N=C\\c1ccc(-c2ccc(Cl)cc2)o1"
cat = "n"

[[record]]
compound = "COc1ccc(C)cc(O)c1=O"
cat = "n"

[[record]]
compound = "COc1cc2ccc(=O)oc2cc1O"
cat = "n"

[[record]]
compound = "O=C1Cc2c([nH]c3ccc(Cl)cc23)-c2ccccc2N1"
cat = "n"

[[record]]
compound = "Nc1nn2c(nc(N)c3c(N)n[nH]c32)c1/N=N\\c1ccc(Br)cc1"
cat = "n"

[[record]]
compound = "Cc1cc(C)n(CN(Cn2nc(C)cc2C)C2CCCCC2)n1"
cat = "n"

[[record]]
compound = "Cc1ccc(Nc2nc(N)nc3c2ncn3C2OC(CO)C(O)C2O)cc1 (stereo not drawn)"
cat = "n"

[[record]]
compound = "Nc1ccccc1C(=O)/C=C/c1ccccc1O"
cat = "n"

[[record]]
compound = "C=C(C)CC(C(=O)O)c1ccc(C)cc1 (stereo not drawn)"
cat = "n"

[[record]]
compound = "Cc1nn(C(=O)c2ccc(Cl)cc2)c2c1C(c1cccc([N+](=O)[O-])c1)SC(=N)N2 (stereo not drawn)"
cat = "n"

[[record]]
compound = "N/C(=N\\c1ccc(Cl)cc1)NS(=O)(=O)c1c(C(F)(F)F)cccc1C(F)(F)F"
cat = "n"

[[record]]
compound = "C[Si](C)(C)CC(N)=O"
cat = "n"

[[record]]
compound = "CCOC(=O)Oc1cc2c(c(OC)c1OC)-c1ccc(OC)c(=O)cc1C(NC(C)=O)CC2 (stereo not drawn)"
cat = "y"

[[record]]
compound = "Nc1ccc2c(c1)CC1c3ccccc3C(C2)c2ccccc21"
cat = "n"

[[record]]
compound = "[N-]=[N+]=Nc1cc(=O)[nH]c2ccccc12"
cat = "n"

[[record]]
compound = "[N-]=[N+]=Nc1ccc2c(c1)Sc1ccccc1N2CCCCN1CCN(C(=O)CCNC(=O)Cc2ccc(C(=O)c3ccccc3)cc2)CC1"
cat = "n"

[[record]]
compound = "O=C(CNC(=O)OCc1ccccc1)NCCCCC(NC(=O)OCc1ccccc1)C(=O)O (stereo not drawn)"
cat = "n"

[[record]]
compound = "CN1C(=O)[C@@H]2[C@@H]3c4ccccc4N[C@@H]3c3[nH]c4ccccc4c3[C@@H]2C1=O"
cat = "n"

[[record]]
compound = "N#Cc1c(N)c2c(c(-c3ccccc3)c1-c1ccccc1)C(=O)N(N)C2=O"
cat = "n"

[[record]]
compound = "O=C1Nc2ccc(Cl)cc2C(=O)N2CCC[C@@H]12"
cat = "n"

[[record]]
compound = "CN(C)CC1CN/C(=N\\C(=O)Nc2ccccc2)O1 (stereo not drawn)"
cat = "n"

[[record]]
compound = "Cc1c(Cc2ccccc2)c(Cc2ccccc2)c(C)[s+]1[O-]"
cat = "n"

[[record]]
compound = "O=C1NCCCc2nonc21"
cat = "n"

